Measured values drawn from ChEMBL document CHEMBL3507680 for this set.

assay: Human HepG2 cell viability assay in 384 well format; assay type: toxicity, cell-based; design: dose 125 nL, time 70.5 hour; concentration not given beside the values; settings: HepG2 cells, read-out: Inhibition
The entries below come with measured cytotoxicity at 70.5 h values attached.

Kindly note the recorded cytotoxicity at 70.5 h for Cc1nc(Cc2ccc(F)cc2)cc(C2COCCN2)n1 (stereo unspecified) , which is 2.37%

---

test: Human HepG2 cell viability assay in 384 well format; format: toxicity, cell-based; parameters: dose 125 nL, time 70.5 hour; concentration not given beside the values; conditions: HepG2 cells, read-out: Inhibition
MEASUREMENT_KIND: cytotoxicity at 70.5 h
Returns: string containing the numeric result and its unit.

Would you please look over these solved cases?
MOLECULE | READING
CC(C)NC(=O)CN(C)C(=O)c1c(Br)c2ccccc2n1C | -4.11%
Cc1noc(C)c1S(=O)(=O)N1CCc2nc(C3CCNCC3)ncc2C1 | -6.62%

Short answer for `O=C(NCCO)c1coc(Cn2cnc3ccccc32)n1` : cytotoxicity at 70.5 h was -1.94%

The recorded cytotoxicity at 70.5 h for COc1cc2c(cc1CNC(=O)Cc1cc(C)on1)OC(C)C2 (stereo unspecified) is -8.66%

Measured cytotoxicity at 70.5 h of Cc1ccc(C(=O)N2CCCC(c3nncn3C)C2)c(C)c1 (stereo unspecified) : -4.5%

Lab note: measured cytotoxicity at 70.5 h of Cc1ccc(N2CCCC(NCc3cccs3)C2)nn1 (stereo unspecified) was -1.01%

---

Reported cytotoxicity at 70.5 h values for a set of molecules
assay: Human HepG2 cell viability assay in 384 well format; assay type: toxicity, cell-based; set-up: dose 125 nL, time 70.5 hour; concentration not given beside the values; settings: HepG2 cells, read-out: Inhibition
Quick reminder: number only, in %, skip the unit.

In the examples that follow, each entry is paired with its recorded cytotoxicity at 70.5 h.
MOLECULE | cytotoxicity at 70.5 h (%)
OC[C@H]1CC[C@]2(CC1)CN(Cc1ccccc1F)Cc1ccccc1O2 | -3.44
N#Cc1ccc(CN2CCCCC2Cn2cncn2)c(F)c1 (stereo unspecified) | 4.33
Cc1cccc(CNC[C@H]2Cn3cc(-c4ccccc4)nc3CO2)n1 | -7.12
CCS(=O)(=O)c1ccccc1N1CCC(NC(=O)C2CC2)CC1 | 1.87

Lab note: measured cytotoxicity at 70.5 h of `Cc1cccc(S(=O)(=O)N2C[C@@H]3OCCN(C(C)C)[C@@H]3C2)c1` was -6.06

Lookup result for `COCC(=O)N[C@@H]1CN(Cc2c[nH]nc2-c2cccs2)C[C@H]1O` ; measured cytotoxicity at 70.5 h: -2.93

Short answer for FC(F)(F)c1ccnc(N2CCCC(N3CCOCC3)C2)c1 (stereo unspecified) : cytotoxicity at 70.5 h was 9.74

The molecule listed as `Cc1oncc1C(=O)N1CC[C@H]2[C@H](C[C@@H](CN(C)C)N2CC2CC2)C1` shows cytotoxicity at 70.5 h equal to -0.907

What the record says about `COCCNC(=O)Cn1c(-c2cccc(F)c2)nc(C)c(CCO)c1=O` : cytotoxicity at 70.5 h is -7.96

For reference, reported cytotoxicity at 70.5 h for CSCc1noc(CN2CC(Cc3ccccc3)CC2=O)n1 (stereo unspecified) stands at -13

Entry `Cn1nnc(C2(NC(=O)c3ccccc3)CCCC2)n1` — recorded cytotoxicity at 70.5 h = -8.79

---

test: Human HepG2 cell viability assay in 384 well format; type: toxicity, cell-based; parameters: dose 125 nL, time 70.5 hour; concentration not given beside the values; conditions: HepG2 cells, read-out: Inhibition
MEASUREMENT_KIND: cytotoxicity at 70.5 h (%)
Give the value, in units of %, as a plain number.

MOLECULE | MEASUREMENT_KIND | READING
Cc1ccc(NC(=O)CNC(C)Cc2ccsc2)cc1F (stereo unspecified) | cytotoxicity at 70.5 h | -8.47

Kindly note the recorded cytotoxicity at 70.5 h for `CC(=O)NCCC(=O)NC1(c2ccc(Cl)c(Cl)c2)CC1` , which is -3.79

cytotoxicity at 70.5 h measured on Cc1nnc2n1CCN(C(=O)CN1C(=O)C(C)Oc3ccccc31)C2 (stereo unspecified) = -7.32

So, `CN(Cc1cc2n(n1)CCCNC2)Cc1cc(-c2ccncc2)no1` ? Its cytotoxicity at 70.5 h was -5.61

# cytotoxicity at 70.5 h (molecule: `CC(C)C(=O)N1CCC(CNc2nc(C(C)C)nc3c2cnn3C)CC1` ) is -9.27

According to the records, this molecule O=C(NCc1cc(O)ncn1)C1COc2ccccc2C1 (stereo unspecified) displays cytotoxicity at 70.5 h of -8.68

---

test: Human HepG2 cell viability assay in 384 well format; format: toxicity, cell-based; design: dose 125 nL, time 70.5 hour; concentration not given beside the values; conditions: HepG2 cells, read-out: Inhibition
MEASUREMENT_KIND: cytotoxicity at 70.5 h (%)
Enter your answer as a number in %; do not include the unit.

Here's what some known entries look like.
COMPOUND | READING
Cc1ccc(C)c(OC(C)C(=O)NCCNc2cccnc2)c1 (configuration not stated) | -0.127
O=S(=O)(C1CC1)N1CCC2(CC1)COC(COc1cccnc1)C2 (configuration not stated) | -10.2
CC(C)C1C(=O)NCCN1C(=O)CCCc1nc(C(C)(C)C)no1 (configuration not stated) | -3.75

Summary for this compound, `CCCNc1ncc(CN2CCC3(CC2)CNC(=O)C3)cn1` : cytotoxicity at 70.5 h is 12.6

Field cytotoxicity at 70.5 h (entry N#Cc1ccc(NCCCOCC2CCCO2)c(F)c1 (configuration not stated) ) reads 2

Per the record, `CCOC(=O)c1cnn(C2CCN(C(=O)CC3CCCC3)CC2)c1N` has cytotoxicity at 70.5 h of -2.45

The reported cytotoxicity at 70.5 h of the compound `CC(C)c1noc(OCc2cccc(C#N)c2)n1` was -11.8

Value of measured cytotoxicity at 70.5 h for the entry Cc1cn2c(n1)C(CNCC1=Cc3ccccc3OC1)CCC2 (configuration not stated) : 10.6

// cytotoxicity at 70.5 h lookup, compound = `CCOCCCNC(=O)CN(c1ccc(F)c(F)c1)S(C)(=O)=O` , result: -12.9

The recorded cytotoxicity at 70.5 h for entry `O=C(NC1CC1)[C@@H]1CCO[C@@H]2CCN(CC3CCC3)C[C@@H]21` equals -11.4

cytotoxicity at 70.5 h in this record for CC(NC(=O)c1cnccn1)c1nnc2ccccn12 (configuration not stated) : -4.81

Per the records, this compound ( CC(C)CC(NC(=O)c1cccs1)c1nc2cccnc2n1C (configuration not stated) ) has cytotoxicity at 70.5 h equal to -5.14

---

experiment: Human HepG2 cell viability assay in 384 well format; assay type: toxicity, cell-based; design: dose 125 nL, time 70.5 hour; concentration not given beside the values; conditions: HepG2 cells, read-out: Inhibition
Measured cytotoxicity at 70.5 h by item
Give the quantity in %, number only.

See these solved cases before continuing.
COMPOUND | UNITS_LABEL | cytotoxicity at 70.5 h
O=C(NC[C@H]1OC[C@@H](NC2CCC2)[C@@H]1O)c1cccs1 | % | -5.08
CN(Cc1cn2c(n1)CN(C(=O)C1CCCO1)CC2)Cc1ccco1 (configuration not stated) | % | -3.64
O=C1CC(NS(=O)(=O)c2ccc(Cl)cc2)CN1 (configuration not stated) | % | 0.308

The compound listed as CNc1cccc(C2CCCN(C(=O)c3cccnc3)C2)n1 (configuration not stated) shows cytotoxicity at 70.5 h equal to 20.4

Quick note, cytotoxicity at 70.5 h for `COc1ccc(NC(=O)c2cnc(N3CCN(C)CC3)nc2C)cc1` landed at -6.31

---

experiment: Human HepG2 cell viability assay in 384 well format; type: toxicity, cell-based; set-up: dose 125 nL, time 70.5 hour; concentration not given beside the values; conditions: HepG2 cells, read-out: Inhibition
List of cytotoxicity at 70.5 h values.
// units = %; emit number, no label

Below are worked cases with known answers.
MOLECULE | READING
CCc1cnc(N)nc1NCCc1ccc(OC)cc1OC | -0.653
Cc1ccc(C(=O)N2CCO[C@H]3[C@H](OCC4CCOCC4)CC[C@@H]32)o1 | 11.2
Cc1ccc(N2CCC(NCc3cnc(C4CCC4)s3)CC2)nc1 | 6.63
CCn1ccnc1CN1CCN(CCCS(C)(=O)=O)CC1C (configuration not stated) | 12.1

Briefly, cytotoxicity at 70.5 h measured for `Nc1nc2c(c(NC(=O)Nc3ccc(Cl)c(Cl)c3)n1)CCCC2` : 9.83

// CC(CNC(=O)C1(c2ccc(F)cc2)CC1)CN1CCCC1=O (configuration not stated) : cytotoxicity at 70.5 h value = 15.4

Value of measured cytotoxicity at 70.5 h for the entry COc1cccc(OCCNC(=O)CN2CCN(C)CC2C)c1 (configuration not stated) : -13.4
